Below, each entry is listed alongside its reported mass density.
setup.conditions: 293.15 K; 2000 kPa; Liquid; vibrating tube
assay.readout: mass density (kg/m3)

>>> print(df.to_string())
                                   compound  recorded_number
0  CCCCCCCC[n+]1ccn(C)c1.F[B-](F)(F)F [1-methyl-3-octylimidazolium tetrafluoroborate]          1108.68
1  CCCCn1cc[n+](C)c1.F[B-](F)(F)F [1-butyl-3-methylimidazolium tetrafluoroborate]          1206.11
2  CCCCCCn1cc[n+](C)c1.F[B-](F)(F)F [1-hexyl-3-methylimidazolium tetrafluoroborate]          1149.88
3  CCn1cc[n+](C)c1.F[B-](F)(F)F [1-ethyl-3-methylimidazolium tetrafluoroborate]          1290.17
